Give melting point for every item shown.

Below: 3 compounds and their reported melting point.
Compound	melting point
NC(=O)c1c(-c2cnccn2)ssc1=S	267 °C
O=C(NC1(C(=O)O)CC1)OCCOC(=O)C1CCCCC1	124 to 125 °C
COc1ccc(-c2sc3cc(OC)ccc3c2C(=O)c2ccc(O)cc2)cc1	114 to 116 °C

Dear colleague, could you send me melting point for each of the items below? Thanks.
1. COc1ccc(-c2ccccc2-c2ccc(S(C)(=O)=O)cc2)cc1Cl
2. CN(CCNC(=O)NCCCOc1cccc(CN2CCCCC2)c1)CCC(c1ccc(Cl)cc1)c1ccccn1 (stereo not given)
3. O=[N+]([O-])c1ccc(-n2cccc2)c(Cl)c1
4. N#CCC12CC(c3ccccc31)c1ccccc12
5. CC(C)C(=O)Oc1cccc2c(-c3ccccc3)c3cccc(OC(=O)C(C)C)c3c(OC(=O)C(C)C)c12

Solution:
162 °C
99 to 105 °C
54 to 55 °C
130 to 131 °C
224 °C

* * *

Measurement Name: melting point

Below: 3 compounds and their reported melting point.
Compound	Experimental Result
CCOc1cc(C)ccc1C1CCN(CCCCNC(=O)c2ccc(-c3ccc(C(F)(F)F)cc3)cc2)CC1	191 °C
O=C(N[C@H](Cc1ccc(CC(F)(F)C(F)(F)F)cc1)[C@@H](O)c1cccc(Cl)c1)c1ccc(F)c2ccccc12 (racemic)	191 to 192 °C
CCOc1cc2cc(CO)cc(-c3ccnc(-n4nc(C)c5ccccc5c4=O)c3)c2cc1OCC	220 to 221 °C

// below: melting point requested for another compound
Exercise: Query: melting point; subject: "CCOC(=O)CN(C(=O)C(=O)N(CC(=O)OCC)S(=O)(=O)C(F)(F)F)S(=O)(=O)C(F)(F)F"
Solution: 88 to 90 °C

* * *

Give melting point for every item shown.

Below: 2 compounds and their reported melting point.
Compound	melting point
CC(C)(C)OC(=O)Nc1ncc(F)s1	157 to 159 °C
Cc1cc(CN2CCN(c3ccc(C(=O)NC4CC4)cc3F)CC2)cc2c1OC(C)C(=O)N2 (stereo unspecified)	253 °C

Dear colleague, could you send me melting point for each of the items below? Thanks.
1. CN(C)CC(C)(C)C(NC(=O)c1ccc(Cl)cc1)NC(=NC#N)Nc1cccnc1 (stereo unspecified)
2. CCOC(=O)c1cnc2n(c1=O)CCC2
3. O=[N+]([O-])c1cncnc1O
4. Cn1nc2ccccc2c1C(=O)NC1CCN(CCCc2ccc(F)cc2)CC1
5. COC(=O)c1ccc(O)c(C(=O)CC(=O)C=Cc2ccccc2)c1
6. CC(=O)Nc1ccc(-c2c(Cl)c(CN3C(=O)CCC3=O)nc3sc4c(c23)CCNC4)cc1
7. COC(=O)c1sc2c(c1N)c1ccccc1c(=O)n2-c1ccccc1

Solution:
["101 to 103 °C", "59 to 60 °C", "300 °C", "162 to 165 °C", "138 to 140 °C", "300 °C", "> 270 °C"]

Dear colleague, could you send me melting point for each of the items below? Thanks.
1. CCOC(=O)c1cc2ccc(N(CC)CC)cc2oc1=O
2. CC(=NOCC=Cc1ccccc1)C(=O)Cl

Solution:
1. 77 to 78 °C
2. 120 to 121 °C

* * *

Give melting point for every item shown.

Below: 5 compounds and their reported melting point.
Compound	melting point
CCOC(=O)c1cn(C2CC2)c2c(OC(F)F)c(F)c(F)c([N+](=O)[O-])c2c1=O	262 to 268 °C
CN(C)c1ccc(C2OC(=O)c3c(Cl)c(Cl)c(Cl)c(Cl)c32)c(N(C)C)c1 (stereo not given)	195 to 197 °C
Cc1c(Br)ccc(N)c1S(C)(=O)=O	103 to 106 °C
Nc1ccc(N)c(C(=O)c2ccccc2Cl)c1	30 to 40 °C
CCOC(=O)c1nn(-c2ccc(C)cc2)nc1C	47 to 48 °C

Dear colleague, could you send me melting point for each of the items below? Thanks.
1. COc1ccccc1-n1c(-c2cc(-c3ccncc3)c(N3CCOCC3)s2)nc2ccccc2c1=O
2. CON1C(C)(C)CC(O)CC1(C)C
3. O=C(O)c1ccccc1COc1cccc(Br)c1
4. Cc1ccc(CC2CCN(C(=O)C(=O)Nc3ccc4c(c3)OCC(=O)N4)CC2)cc1

Solution:
204 to 205 °C
92 to 93 °C
158 to 159 °C
228 to 231 °C

Exercise: Query: melting point; subject: "O=C1Cc2cccc3c2N1C(C(F)(F)F)=C(F)S3"
Solution: 128 to 130 °C

* * *

Measurement Name: melting point

Below: 4 molecules and their reported melting point.
Molecule	melting point
NC1=NN(c2ccccn2)C(c2ccccc2)C1 (stereo not given)	203 to 206 °C
CS(=O)(=O)c1ccc(-c2cnn(-c3cccc(F)c3)c(=O)c2-c2ccc(F)cc2)cc1	245 to 247 °C
Cn1ccc(N)cc1=O	200 to 202 °C
COc1ccc(C2=NN(Cc3ccccc3O)C(=O)[C@H]3CCCC[C@@H]23)cc1OC (relative stereo)	132 to 133 °C

// below: melting point requested for another molecule
Exercise: Query: melting point; subject: O=C1C2CCCN2S(=O)(=O)N1CSc1ccccc1 (stereo not given)
Solution: 90.5 to 91.5 °C

* * *

Give melting point for every item shown.

Below: 3 molecules and their reported melting point.
Molecule	melting point
OC(CCN1CCC(c2ccccc2)CC1)c1ccc(Cc2ccc(Cl)cc2)cc1 (stereo unspecified)	98 to 101 °C
CC(=O)Nc1cccc(C#CCCn2nc3ccccc3n2)n1	93 to 94 °C
Cc1[nH]c(=O)[nH]c1C(=O)C1CC1	272 to 273 °C

Dear colleague, could you send me melting point for each of the items below? Thanks.
1. Cc1c(Br)ccc([N+](=O)[O-])c1C#N
2. O=c1[nH]c2cc(Cl)ccc2c(=O)n1Cc1ccc(Br)cc1F
3. COc1cccc(-n2c(=O)n(O)c(=O)c3cc(F)c(N4CCCC4)cc32)c1

Solution:
["116 to 118 °C", "288 to 289 °C", "216 to 218 °C"]

* * *

Measurement Name: melting point

Below: 3 molecules and their reported melting point.
Molecule	melting point
CC(C)NCC(O)COC1c2ccccc2C(=O)N1c1ccc(Cl)cc1 (centres undefined)	90 to 92 °C
CCOC(=O)C(Cc1c(OCC)noc1-c1ncn(C(c2ccccc2)(c2ccccc2)c2ccccc2)n1)(NC(C)=O)C(=O)OCC	145 to 149 °C
CC/C(=C(\c1ccc(/C=C/C(=O)O)cc1)c1ccc(OC(=O)CCC(F)(F)F)cc1)c1ccccc1	162 to 163 °C

Dear colleague, could you send me melting point for each of the items below? Thanks.
1. Clc1cc(Nc2ccccc2)c(Cl)nn1
2. CC1Cc2cc3c(cc2C(c2ccc([N+](=O)[O-])cc2)=NN1C1=NC(=O)CCS1)OCO3 (centres undefined)
3. O=C(O)CCCCCOc1cc(-c2ccccc2)cc(-c2ccccc2)c1
4. CC(=O)Nc1ccc(OCCOCCOc2ncc(Cl)cn2)cc1
5. CCC(Cl)C(=O)Nc1c(C(=O)CC(=O)Nc2nccs2)cccc1C(F)(F)F (centres undefined)
6. Cc1ccc2c(c1)c(N1CCNCC1)c(C#N)c(=O)n2Cc1ccccc1

Solution:
1. 137 to 139 °C
2. 220 to 221 °C
3. 104 °C
4. 110 °C
5. 170 °C
6. 152 °C

Dear colleague, could you send me melting point for each of the items below? Thanks.
1. COC(=O)CCC(=O)c1ccccc1OCC(O)CNC(C)(C)C (centres undefined)
2. CCCCN=C(O)c1cc([N+](=O)[O-])cc(Sc2ccccc2C(=O)O)c1C(=O)O

Solution:
1: 80 to 81.5 °C; 2: 192 to 196 °C

Dear colleague, could you send me melting point for each of the items below? Thanks.
1. CC1CC2C3CC(Cl)C4=CC(=O)C=CC4(C)C3(Cl)C(O)CC2(C)C1C(=O)COC(=O)C(C)(C)C (centres undefined)
2. Cn1ncnc1COc1nn2c(-c3ccccc3F)nncc2c1-c1cccc(N)c1
3. Cn1ccnc1SCCN1CCC(=C2c3ccn(C)c3CCn3ccnc32)CC1
4. c1ccc2c(c1)ccc1c(-c3ccncc3)[nH]nc12
5. N#CCOc1cccc(COc2ccc(OCc3ccc4ccccc4n3)cc2)c1
6. Cc1nnc(-c2ccc3occ(-c4ccc(S(C)=O)c(F)c4)c3c2)o1 (centres undefined)
7. O=C(CN1CCC(Cc2ccc(F)cc2)CC1)Nc1ccc2[nH]c(=S)[nH]c2c1

Solution:
1: 238 °C; 2: 196 to 200 °C; 3: 200 °C; 4: 271 to 273 °C; 5: 110 to 114 °C; 6: 168 to 169 °C; 7: 266 to 268 °C

Exercise: Query: melting point; subject: O=C(NCCNC(=O)C1CCNC1)OCc1ccccc1 (centres undefined)
Solution: 129 to 131 °C

* * *

Give melting point for every item shown.

Below: 2 compounds and their reported melting point.
Compound	Experimental Result
O=c1c(Br)c(OCc2ccccc2C(F)(F)F)ccn1Cc1ccccc1	133 to 134 °C
O=C(NC1CC1)[C@@H]1CN(C(=O)OCc2ccccc2)C[C@H]1O	132 to 133 °C

Dear colleague, could you send me melting point for each of the items below? Thanks.
1. COc1ccc(-c2cc3cc(F)c(F)cc3[nH]2)cc1NC(=S)NCCO
2. CCS(=O)(=O)N(C)C1CCCOc2c(C)cc(Cl)cc21 (stereo unspecified)

Solution:
1: 191 to 193 °C; 2: 141 to 143 °C

Origin of values: a melting point compilation (Tetko et al.; mined from patent text by program, amines drawn as free bases though some values may be those of a salt)
